# target-or-system: UniProt:Q04756
# Sequence (Q04756 373-655): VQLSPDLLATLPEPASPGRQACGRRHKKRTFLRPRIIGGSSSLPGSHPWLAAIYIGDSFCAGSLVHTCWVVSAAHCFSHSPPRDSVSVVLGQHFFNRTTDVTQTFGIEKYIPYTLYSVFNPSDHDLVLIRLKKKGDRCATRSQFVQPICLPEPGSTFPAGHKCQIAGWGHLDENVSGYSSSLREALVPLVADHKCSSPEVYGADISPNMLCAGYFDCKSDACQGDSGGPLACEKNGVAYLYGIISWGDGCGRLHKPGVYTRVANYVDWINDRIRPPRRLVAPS
Quick rule for you: IC50 under 200 nM gets label 1, anything else gets label 0.

molecule	class-name
CC[C@H](C)[C@H](NC(C)=O)C(=O)N[C@@H](CCC(N)=O)C(=O)N[C@H](C(=O)N[C@H](CCCNC(=N)N)C(=O)c1nc2ccccc2s1)C(C)C [MM3180-1, Ac-IQVdR-kbt]	label 0
N=C(N)NCCC[C@H](NC(=O)[C@H](Cc1ccccc1)NC(=O)[C@H](CCC(N)=O)NS(=O)(=O)Cc1ccccc1)C(=O)c1nc2ccccc2s1 [MF1105, BnSO2-QFR-kbt]	label 1
N=C(N)NCCC[C@H](NC(=O)[C@H](Cc1ccccc1)NC(=O)[C@H](CCC(N)=O)NS(=O)(=O)C1CC1)C(=O)c1nc2ccccc2s1 [MF1104, CypSO2-QFR-kbt]	label 1
CC[C@H](C)[C@H](NC(C)=O)C(=O)N[C@H](C(=O)N[C@@H](Cc1ccccc1)C(=O)N[C@H](CCCNC(=N)N)C(=O)c1nc2ccccc2s1)[C@@H](C)O [MM4028-1, Ac-ITFdR-kbt]	label 0
CC[C@H](C)[C@H](NC(C)=O)C(=O)N[C@@H](CCC(N)=O)C(=O)N[C@@H](C)C(=O)N[C@@H](CCCNC(=N)N)C(=O)c1nc2ccccc2s1 [MM3178, Ac-IQAR-kbt]	label 0
CC[C@H](C)[C@H](NC(C)=O)C(=O)N[C@@H](CCC(N)=O)C(=O)N[C@H](C(=O)N[C@@H](CCCNC(=N)N)C(=O)c1nc2ccccc2s1)C(C)C [MM3180, Ac-IQVR-kbt]	label 0
CC[C@H](C)[C@H](NC(C)=O)C(=O)N[C@@H](CO)C(=O)N[C@@H](Cc1ccccc1)C(=O)N[C@@H](CCCNC(=N)N)C(=O)c1nc2ccccc2s1 [MM4009, Ac-ISFR-kbt]	label 1
CC[C@H](C)[C@H](NC(C)=O)C(=O)N[C@@H](CCC(N)=O)C(=O)N[C@@H](Cc1c[nH]c2ccccc12)C(=O)N[C@@H](CCCNC(=N)N)C(=O)c1nc2ccccc2s1 [MM3187, Ac-IQWR-kbt]	label 0
